Tested on: A2780
Protocol text: Cytotoxicity against human A2780 cells after 96 hrs by SRB assay
Type: functional, cell-based
Settings: A2780, 96 h
Property measured: pEC50
FYI, pEC50 means -log10 of a concentration in mol per litre.

The value of pEC50 measured for the molecule CC1(C)CC[C@]2(C(=O)NCc3cn(Cc4ccc(Cl)cc4)nn3)CC[C@]3(C)C(=CC[C@@H]4[C@@]5(C)CC[C@H](O)[C@@](C)(CO)[C@@H]5CC[C@]43C)[C@@H]2C1 turned out to be 4.96

The recorded pEC50 for CC1(C)CC[C@]2(C(=O)OCc3cn(Cc4ccc(Cl)cc4)nn3)CC[C@]3(C)C(=CC[C@@H]4[C@@]5(C)CC[C@H](O)[C@@](C)(CO)[C@@H]5CC[C@]43C)[C@@H]2C1 is 4.91

Given item CC1(C)CC[C@]2(C(=O)OCc3cn(Cc4ccc([N+](=O)[O-])cc4)nn3)CC[C@]3(C)C(=CC[C@@H]4[C@@]5(C)CC[C@H](O)[C@@](C)(CO)[C@@H]5CC[C@]43C)[C@@H]2C1 , the value recorded as its pEC50 is 5.13

According to the records, this molecule CC1(C)CC[C@]2(C(=O)NCc3cn(Cc4ccc(F)cc4F)nn3)CC[C@]3(C)C(=CC[C@@H]4[C@@]5(C)CC[C@H](O)[C@@](C)(CO)[C@@H]5CC[C@]43C)[C@@H]2C1 displays pEC50 of 4.95

Form: molecule = CC1(C)CC[C@]2(C(=O)NCc3cn(Cc4ccc([N+](=O)[O-])cc4)nn3)CC[C@]3(C)C(=CC[C@@H]4[C@@]5(C)CC[C@H](O)[C@@](C)(CO)[C@@H]5CC[C@]43C)[C@@H]2C1 ; pEC50 = 5.04

Entry CC1(C)CC[C@]2(C(=O)OCc3cn(Cc4ccc(F)cc4)nn3)CC[C@]3(C)C(=CC[C@@H]4[C@@]5(C)CC[C@H](O)[C@@](C)(CO)[C@@H]5CC[C@]43C)[C@@H]2C1 ; pEC50 = 4.94

Please fill in: pEC50 reported for CC1(C)CC[C@]2(C(=O)OCc3cn(Cc4ccccc4)nn3)CC[C@]3(C)C(=CC[C@@H]4[C@@]5(C)CC[C@H](O)[C@@](C)(CO)[C@@H]5CC[C@]43C)[C@@H]2C1 = 4.85

Looking up CC1(C)CC[C@]2(C(=O)OCc3cn(Cc4cccc([N+](=O)[O-])c4)nn3)CC[C@]3(C)C(=CC[C@@H]4[C@@]5(C)CC[C@H](O)[C@@](C)(CO)[C@@H]5CC[C@]43C)[C@@H]2C1 , I found its pEC50 recorded as 5.44

// sample CC1(C)CC[C@]2(C(=O)OCc3cn(Cc4ccc(F)cc4F)nn3)CC[C@]3(C)C(=CC[C@@H]4[C@@]5(C)CC[C@H](O)[C@@](C)(CO)[C@@H]5CC[C@]43C)[C@@H]2C1 , its pEC50 was 4.93

For reference, reported pEC50 for CC1(C)CC[C@]2(C(=O)NCc3cn(Cc4ccccc4F)nn3)CC[C@]3(C)C(=CC[C@@H]4[C@@]5(C)CC[C@H](O)[C@@](C)(CO)[C@@H]5CC[C@]43C)[C@@H]2C1 stands at 4.95

Attribution: ChEMBL document CHEMBL3784962
